System: SNU-182
Test: Cell Titer-Glo proliferation assay, 72 h
Type: cell-based
Conditions: Homo sapiens; SNU-182 cells, 72 h OSI-906
assay readout: EC50

Query (molecule): C[C@]1(O)C[C@@H](c2nc(-c3ccc4ccc(-c5ccccc5)nc4c3)c3c(N)nccn32)C1 ; field requested: EC50
> 10 µM

###

System: JHH-4
Assay: Cell Titer-Glo proliferation assay, 72 h
Format: cell-based
Conditions: Homo sapiens; JHH-4 cells, 72 h OSI-906
pEC50: −log10 of the molar value.
assay readout: pEC50

What measured pEC50 goes with C[C@]1(O)C[C@@H](c2nc(-c3ccc4ccc(-c5ccccc5)nc4c3)c3c(N)nccn32)C1 [OSI-906] ?
< 5.00
